Target: T1, recombinant soluble human TREM2 protein (human TREM2 ECD-FlagHis) (human, UniProt Q9NZC2 19-174)
T1 sequence: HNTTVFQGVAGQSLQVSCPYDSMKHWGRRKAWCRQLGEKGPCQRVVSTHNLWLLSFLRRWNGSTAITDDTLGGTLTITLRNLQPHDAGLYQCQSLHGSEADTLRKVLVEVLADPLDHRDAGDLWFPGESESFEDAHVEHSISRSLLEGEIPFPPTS
Assay: Octet BLI binning; competitor: load Ab 16B8
Lab note: cut-off is 0.3. Strictly less in sandwich binding signal is condition met. Exactly 0.3 or more is condition not met.

[[record]]
binder = "5E3 (antibody, human IgG2, V domains shown, human IgG2 from hybridoma) VH: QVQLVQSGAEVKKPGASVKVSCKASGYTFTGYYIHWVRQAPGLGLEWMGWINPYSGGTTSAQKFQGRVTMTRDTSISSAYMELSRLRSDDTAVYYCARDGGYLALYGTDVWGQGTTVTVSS VL: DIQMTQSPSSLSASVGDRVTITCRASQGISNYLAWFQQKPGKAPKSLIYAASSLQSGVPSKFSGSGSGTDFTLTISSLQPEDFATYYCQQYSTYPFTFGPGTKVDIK"
class = "condition met"

[[record]]
binder = "10E3 (antibody, human IgG2, V domains shown, human IgG2 from hybridoma) VH: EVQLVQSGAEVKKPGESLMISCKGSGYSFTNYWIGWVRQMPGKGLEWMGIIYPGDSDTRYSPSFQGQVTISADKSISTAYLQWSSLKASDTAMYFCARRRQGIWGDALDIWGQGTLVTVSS VL: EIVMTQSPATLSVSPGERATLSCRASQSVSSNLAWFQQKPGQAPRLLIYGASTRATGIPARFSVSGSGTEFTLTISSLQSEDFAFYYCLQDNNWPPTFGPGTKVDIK"
class = "condition not met"

[[record]]
binder = "6E7 (antibody, human IgG2, V domains shown, human IgG2 from hybridoma) VH: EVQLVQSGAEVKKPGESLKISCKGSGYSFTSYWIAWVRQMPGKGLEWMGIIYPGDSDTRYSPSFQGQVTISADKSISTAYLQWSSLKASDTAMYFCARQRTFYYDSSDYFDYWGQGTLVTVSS VL: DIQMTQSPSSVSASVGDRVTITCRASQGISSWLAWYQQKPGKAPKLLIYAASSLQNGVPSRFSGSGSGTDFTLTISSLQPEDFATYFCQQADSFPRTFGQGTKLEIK"
class = "condition not met"

[[record]]
binder = "13E7 (antibody, human IgG2, V domains shown, human IgG2 from hybridoma) VH: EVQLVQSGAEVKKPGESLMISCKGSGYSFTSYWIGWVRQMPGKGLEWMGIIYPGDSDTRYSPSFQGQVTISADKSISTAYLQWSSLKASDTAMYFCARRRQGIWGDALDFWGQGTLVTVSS VL: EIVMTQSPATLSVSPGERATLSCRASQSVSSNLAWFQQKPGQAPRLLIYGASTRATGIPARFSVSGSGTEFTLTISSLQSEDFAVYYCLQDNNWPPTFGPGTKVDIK"
class = "condition not met"

[[record]]
binder = "16B8 (antibody, human IgG4, V domains shown, human IgG4 (G4) from hybridoma) VH: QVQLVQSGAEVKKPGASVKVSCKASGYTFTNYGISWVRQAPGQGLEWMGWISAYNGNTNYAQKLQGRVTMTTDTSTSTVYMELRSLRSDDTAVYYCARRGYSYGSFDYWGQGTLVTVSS VL: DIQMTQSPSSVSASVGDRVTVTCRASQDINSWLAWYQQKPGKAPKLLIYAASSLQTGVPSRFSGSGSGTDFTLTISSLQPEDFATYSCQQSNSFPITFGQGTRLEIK"
class = "condition met"


// data source = patent US20220204611A1
